- measurement-protocol: Quantitative High-Throughput drug screen in 47 multiple myeloma cell lines against the NCATS MIPE library collection: KMS11_JCRBsus cell viability assay (AID 1919873); further: nearly all actives have a fitted effect of over 50% in size
- condition-details: KMS11 myeloma viability, CellTiter-Glo ATP luminescence, 48 h; series mostly up to 45.8 µM
Records with an inconclusive call do not appear. Calls of active or inactive are those of the source. The call rests on the fitted dose curve; in most records, active means well fitted cell-killing curve with a large enough effect; inconclusive means small, poorly fitted or top-dose-only effect, or effect the other way; inactive means no such curve, though single readings can be large or run the other way.
Valid outcomes are listed here; reply with one: yes (1) (active), no (0) (inactive)

Before answering, review these 3 worked examples.
molecule | assigned-label
CC(C)(Sc1cc(C(C)(C)C)c(O)c(C(C)(C)C)c1)Sc1cc(C(C)(C)C)c(O)c(C(C)(C)C)c1 | no (0)
CNCC[C@H](Oc1cccc2ccccc12)c1cccs1 | yes (1)
C1CCC(C(CC2CCCCN2)C2CCCCC2)CC1 (stereo not given) | yes (1)

Field: outcome | Entry: CNC(=O)c1cc(Oc2ccc(NC(=O)Nc3ccc(Cl)c(C(F)(F)F)c3)cc2)ccn1
yes (1)

Field: outcome | Entry: COc1c(N2CCNC(C)C2)c(F)cc2c(=O)c(C(=O)O)cn(C3CC3)c12 (stereo not given)
no (0)

Field: outcome | Entry: O=c1oc2c(O)c(O)cc3c(=O)oc4c(O)c(O)cc1c4c23
no (0)

Field: outcome | Entry: NC(=O)c1ccc2[nH]ccc2c1
no (0)

Field: outcome | Entry: COCCCOc1cc(C[C@@H](C[C@H](N)[C@@H](O)C[C@H](C(=O)NCC(C)(C)C(N)=O)C(C)C)C(C)C)ccc1OC
no (0)

Field: outcome | Entry: CN(Cc1cc(Br)cc(Br)c1N)C1CCCCC1
no (0)

Field: outcome | Entry: COC(=O)Nc1nc2ccc(Sc3ccccc3)cc2[nH]1
yes (1)
